A collection of molecules and their measured Cyno Primary Hepatocyte Editing % 500 ng/ml
Tested on: ANGPTL3 gene
Assay Info: ANGPTL3 gRNA/SpCas9 editing in primary cynomolgus hepatocytes (Table 3)
Format: cell-based, cynomolgus monkey
Value expressed in %; do not type the unit.

Which Cyno Primary Hepatocyte Editing % 500 ng/ml value is on record for GA113: ANGPTL3 gRNA; protospacer ATTCTGGAGGAAATAACTAG (SEQ ID NO: 111) (nucleic acid, 2'-O-methyl at 1, 2, other sugars, backbone and T or U not given here; further chemistry not fully specified) guide: AUTCTGGAGGAAATAACTAGGTTTTAGAGCTAGAAATAGCAAGTTAAAATAAGGCTAGTCCGTTATCAACTTGAAAAAGTGGCACCGAGTCGGTGCTTTT ?
26.67

Which Cyno Primary Hepatocyte Editing % 500 ng/ml value is on record for GA110: ANGPTL3 gRNA; protospacer GACCATGTCCCAACTGAAGG (SEQ ID NO: 108) (nucleic acid, 2'-O-methyl at 1, 2, other sugars and backbone not given here; further chemistry not fully specified) guide: GACCATGTCCCAACTGAAGGGTTTTAGAGCTAGAAATAGCAAGTTAAAATAAGGCTAGTCCGTTATCAACTTGAAAAAGTGGCACCGAGTCGGTGCTTTT ?
15.99

Which Cyno Primary Hepatocyte Editing % 500 ng/ml value is on record for GA129: ANGPTL3 gRNA; protospacer AGTTCTTGGTGCTCTTGGCT (SEQ ID NO: 127) (nucleic acid, 2'-O-methyl at 1, 2, other sugars and backbone not given here; further chemistry not fully specified) guide: AGTTCTTGGTGCTCTTGGCTGTTTTAGAGCTAGAAATAGCAAGTTAAAATAAGGCTAGTCCGTTATCAACTTGAAAAAGTGGCACCGAGTCGGTGCTTTT ?
20.06

Which Cyno Primary Hepatocyte Editing % 500 ng/ml value is on record for GA151: ANGPTL3 gRNA; protospacer GAGAACTACAAATATGGTTT (SEQ ID NO: 149) (nucleic acid, 2'-O-methyl at 1, 2, other sugars and backbone not given here; further chemistry not fully specified) guide: GAGAACTACAAATATGGTTTGTTTTAGAGCTAGAAATAGCAAGTTAAAATAAGGCTAGTCCGTTATCAACTTGAAAAAGTGGCACCGAGTCGGTGCTTTT ?
38.91

Which Cyno Primary Hepatocyte Editing % 500 ng/ml value is on record for GA128: ANGPTL3 gRNA; protospacer TGAAGAAAGGGAGTAGTTCT (SEQ ID NO: 126) (nucleic acid, 2'-O-methyl at 1, 2, other sugars, backbone and T or U not given here; further chemistry not fully specified) guide: UGAAGAAAGGGAGTAGTTCTGTTTTAGAGCTAGAAATAGCAAGTTAAAATAAGGCTAGTCCGTTATCAACTTGAAAAAGTGGCACCGAGTCGGTGCTTTT ?
32.55

Which Cyno Primary Hepatocyte Editing % 500 ng/ml value is on record for GA111: ANGPTL3 gRNA; protospacer GCCAATGGCCTCCTTCAGTT (SEQ ID NO: 109) (nucleic acid, 2'-O-methyl at 1, 2, other sugars and backbone not given here; further chemistry not fully specified) guide: GCCAATGGCCTCCTTCAGTTGTTTTAGAGCTAGAAATAGCAAGTTAAAATAAGGCTAGTCCGTTATCAACTTGAAAAAGTGGCACCGAGTCGGTGCTTTT ?
28.98
